biological target: T1, human LILRB2 expressed on cells (293T-LILRB2, CHO-K1-LILRB2) (human, UniProt Q8N423 22-597); experiment: flow cytometry on 293T-LILRB2 cells, serial dilution, APC anti-human IgG; fit table under the graph
T1 construct: whole, on cells; the cell line is named under assay; also called HEK293T-LILRB2
T1 sequence (Q8N423 22-597): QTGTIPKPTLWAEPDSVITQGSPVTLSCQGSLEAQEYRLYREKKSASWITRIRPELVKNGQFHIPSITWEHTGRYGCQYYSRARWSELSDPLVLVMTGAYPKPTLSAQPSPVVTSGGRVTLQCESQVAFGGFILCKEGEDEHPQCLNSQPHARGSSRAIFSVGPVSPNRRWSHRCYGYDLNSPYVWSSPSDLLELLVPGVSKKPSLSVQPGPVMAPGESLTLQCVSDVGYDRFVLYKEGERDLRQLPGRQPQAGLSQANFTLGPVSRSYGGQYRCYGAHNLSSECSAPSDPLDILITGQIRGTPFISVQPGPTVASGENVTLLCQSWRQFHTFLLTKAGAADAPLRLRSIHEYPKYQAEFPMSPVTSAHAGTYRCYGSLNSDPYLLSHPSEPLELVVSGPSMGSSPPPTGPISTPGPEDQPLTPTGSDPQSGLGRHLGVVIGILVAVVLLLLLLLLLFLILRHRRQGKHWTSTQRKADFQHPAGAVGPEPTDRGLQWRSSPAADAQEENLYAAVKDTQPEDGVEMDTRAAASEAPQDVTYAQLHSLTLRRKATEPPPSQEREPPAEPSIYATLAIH
metric: Kd (pM)
Reply numerically in pM, unit not repeated.

Some entries whose results are on file:
Antibody h#2E1 (antibody, V domains shown, Humanized variant of 11B12; detected with anti-human IgG) VH: EVQLVESGGGLVQPGGSLRLSCAVSGYSITSGYYWNWIRQAPGKGLEWVAYISYDGNNNYNPSLKNRFTISRDTSKNTFYLQMNSLRAEDTAVYYCAREESTMITTAWFAYWGQGTLVTVSS VL: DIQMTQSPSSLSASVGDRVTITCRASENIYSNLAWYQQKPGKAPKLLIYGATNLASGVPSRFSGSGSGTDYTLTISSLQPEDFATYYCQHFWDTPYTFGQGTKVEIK | 377
Antibody h#2D4 (antibody, V domains shown, Humanized variant of 11B12) VH: EVQLVESGGGLVQPGGSLRLSCAVSGYSITSGYYWNWVRQAPGKGLEWVAYISYDGNNNYNPSLKNRFTISRDTSKNTFYLQMNSLRAEDTAVYYCVREESTMITTAWFAYWGQGTLVTVSS VL: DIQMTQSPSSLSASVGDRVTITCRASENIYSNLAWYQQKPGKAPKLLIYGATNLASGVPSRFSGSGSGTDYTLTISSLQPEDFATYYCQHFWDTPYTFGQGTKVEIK | 386
Antibody h#2G6 (antibody, V domains shown, Humanized variant of 11B12) VH: EVQLVESGGGLVQPGGSLRLSCAVSGYSITSGYYWNWVRQAPGKGLEWVAYISYDGNNNYNPSLKNRFTISRDASKNTFYLQMNSLRAEDTAVYYCAREESTMITTAWFAYWGQGTLVTVSS VL: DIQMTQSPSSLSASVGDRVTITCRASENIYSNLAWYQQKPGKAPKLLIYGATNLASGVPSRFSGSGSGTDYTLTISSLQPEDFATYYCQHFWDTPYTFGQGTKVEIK | 292

// below: Kd requested for another binder
// sample Antibody h#2D1 (antibody, V domains shown, Humanized variant of 11B12) VH: EVQLVESGGGLVQPGGSLRLSCAVSGYSITSGYYWNWVRQAPGKGLEWVAYISYDGNNNYNPSLKNRFTISRDTSKNTVYLQMNSLRAEDTAVYYCVREESTMITTAWFAYWGQGTLVTVSS VL: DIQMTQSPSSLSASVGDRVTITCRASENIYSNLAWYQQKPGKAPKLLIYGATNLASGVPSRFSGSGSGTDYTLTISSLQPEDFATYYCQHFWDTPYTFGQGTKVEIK , its Kd was 412

Data provenance: patent US20240109962A1
